System: forty-four human cancer cell lines
Method summary: Cell proliferation assay (ATPlite, 72 hours) in the 44 cell line Oncolines panel
Format: cell-based
Condition summary: Homo sapiens, BXPC-3, read-out: cell panel IC50, BxPC-3
Hi there, I'd appreciate the recorded pIC50 for every entry that follows.
Scale explanation: pIC50 corresponds to minus log10 of a concentration expressed in moles per litre.

Would you kindly share the measured pIC50 for Cc1nc(Nc2ncc(C(=O)Nc3c(C)cccc3Cl)s2)cc(N2CCN(CCO)CC2)n1 ? 6.69

Would you kindly share the measured pIC50 for Cc1ccc(Nc2nccc(N(C)c3ccc4c(C)n(C)nc4c3)n2)cc1S(N)(=O)=O ? 5.17

Would you kindly share the measured pIC50 for C[C@@H](Oc1cc(-c2cnn(C3CCNCC3)c2)cnc1N)c1c(Cl)ccc(F)c1Cl ? 5.86

Would you kindly share the measured pIC50 for Cc1cn(-c2cc(NC(=O)c3ccc(C)c(Nc4nccc(-c5cccnc5)n4)c3)cc(C(F)(F)F)c2)cn1 ? 5.00
